System: LNCaP cells
Assay: MTT cell proliferation assay, LNCaP
Format: cell-based, human
Settings: 30 µM, 72 h, average ± SD
Reported MTT screening, cell proliferation values for a set of compounds

substance_smiles	target_system	observed_value
C[C@]12CC[C@H]3[C@@H](CC=C4NC(=O)CC[C@@]43C)[C@@H]1CC[C@@H]2C(=O)/C=C/c1cccnc1	LNCaP cells	0.7 ± 1.0 percentage of negative control

// moving on: another record for MTT screening, cell proliferation
Could you share which MTT screening, cell proliferation value was measured for C[C@]12CC[C@H]3[C@@H](CC=C4NC(=O)CC[C@@]43C)[C@@H]1CC[C@@H]2C(=O)/C=C/c1ccccc1 ?
6.5 ± 5.3 percentage of negative control
